# condition.info: Ebola virus entry assay, ratio channel readout
Activity calls are given as the source filed them. The call rests on the fitted dose curve.
Could you please pick one outcome from this set? active, inactive

Some solved cases for reference:
| molecule | assigned.class |
| --- | --- |
| NC(=O)[C@@H]1CCCN1C(=O)[C@H](Cc1cnc[nH]1)NC(=O)[C@@H]1CCC(=O)N1 | inactive |
| O=C1[O][Bi][O]c2ccccc21 | inactive |

For OCC(S)CS (centres undefined) , what call appears in the results of this test? inactive

Hello, I am checking results. What call was entered for CC[C@H]1OC(=O)[C@H](C)[C@@H](O[C@H]2C[C@@](C)(OC)[C@@H](O)[C@H](C)O2)C(C)[C@@H](O[C@@H]2O[C@H](C)C[C@H](N(C)C)[C@@H]2O)[C@](C)(OC)C[C@@H](C)C(=O)[C@H](C)[C@@H](O)[C@]1(C)O (some centres undefined) ? active
